- TESTED TARGET: UniProt:P19156
- EXPERIMENTAL PROTOCOL: Inhibition of K+ -stimulated gastric ATPase activity was measured using lyophilized gastric vesicles at pH 7
Exercise: for every item that follows, state its recorded IC50.
In your response, put the unit directly after the numeric value.

Give the value of IC50 reported for the following: CCCC(=O)c1cnc2c(OCCCN(C)C)cccc2c1Nc1ccccc1C
390 nM

Give the value of IC50 reported for the following: CCCC(=O)c1cnc2c(N)cccc2c1Nc1c(C)cccc1C
5800 nM

Give the value of IC50 reported for the following: CCC(=O)c1cnc2c(OCCOC)cccc2c1Nc1ccc(F)cc1C
2000 nM

Give the value of IC50 reported for the following: CCCC(=O)c1cnc2c(NCCO)cccc2c1Nc1ccccc1C
7100 nM

Give the value of IC50 reported for the following: CCCC(=O)c1cnc2c(OCCCN(C)Cc3ccccc3)cccc2c1Nc1ccccc1C
650 nM

Give the value of IC50 reported for the following: CCCC(=O)c1cnc2c(NCCc3cnc[nH]3)cccc2c1Nc1ccccc1C
1400 nM

* * *

Exercise: for every item that follows, state its recorded pIC50.
- TESTED TARGET: Potassium-transporting ATPase (Sus scrofa)
- Sequence (P18434 whole entry): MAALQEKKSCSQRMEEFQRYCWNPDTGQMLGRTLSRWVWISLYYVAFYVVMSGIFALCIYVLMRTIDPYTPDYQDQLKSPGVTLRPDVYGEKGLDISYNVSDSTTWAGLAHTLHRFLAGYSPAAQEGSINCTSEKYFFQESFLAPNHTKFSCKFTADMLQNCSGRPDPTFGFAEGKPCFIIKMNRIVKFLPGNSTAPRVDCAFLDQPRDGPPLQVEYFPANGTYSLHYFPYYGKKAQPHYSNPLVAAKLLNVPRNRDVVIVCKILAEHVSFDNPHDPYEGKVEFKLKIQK
- Sequence (P19156 whole entry): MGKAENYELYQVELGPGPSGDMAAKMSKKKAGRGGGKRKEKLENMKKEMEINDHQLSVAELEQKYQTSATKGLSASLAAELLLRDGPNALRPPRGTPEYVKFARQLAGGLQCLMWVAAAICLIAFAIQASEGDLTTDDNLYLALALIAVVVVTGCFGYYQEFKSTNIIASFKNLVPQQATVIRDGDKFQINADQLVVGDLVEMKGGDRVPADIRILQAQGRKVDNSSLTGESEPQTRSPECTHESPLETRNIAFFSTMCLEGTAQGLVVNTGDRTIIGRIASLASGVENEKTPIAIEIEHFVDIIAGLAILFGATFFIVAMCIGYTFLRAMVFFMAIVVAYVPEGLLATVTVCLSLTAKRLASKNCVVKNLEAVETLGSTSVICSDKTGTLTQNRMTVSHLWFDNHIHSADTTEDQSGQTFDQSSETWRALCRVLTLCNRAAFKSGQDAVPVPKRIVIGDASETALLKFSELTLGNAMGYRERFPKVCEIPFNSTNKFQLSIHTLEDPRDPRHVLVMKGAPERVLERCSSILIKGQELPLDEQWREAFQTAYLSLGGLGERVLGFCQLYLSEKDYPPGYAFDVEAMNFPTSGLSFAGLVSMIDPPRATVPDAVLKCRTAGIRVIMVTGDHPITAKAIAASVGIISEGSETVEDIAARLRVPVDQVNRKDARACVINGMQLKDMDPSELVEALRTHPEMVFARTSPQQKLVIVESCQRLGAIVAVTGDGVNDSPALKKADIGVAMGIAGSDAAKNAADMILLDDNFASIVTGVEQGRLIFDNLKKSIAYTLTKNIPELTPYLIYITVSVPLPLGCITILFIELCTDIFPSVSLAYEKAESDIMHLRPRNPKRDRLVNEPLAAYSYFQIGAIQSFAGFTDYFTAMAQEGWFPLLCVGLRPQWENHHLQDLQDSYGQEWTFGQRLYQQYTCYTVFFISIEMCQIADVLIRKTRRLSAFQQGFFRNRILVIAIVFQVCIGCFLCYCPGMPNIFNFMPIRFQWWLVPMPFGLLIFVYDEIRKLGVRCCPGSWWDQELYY
- EXPERIMENTAL PROTOCOL: Inhibition of K+ -stimulated gastric ATPase activity was measured using lyophilized gastric vesicles at pH 7
Notebook: values listed as pIC50 are -log10 of the concentration (mol/L).

Give the value of pIC50 reported for the following: CCCC(=O)c1cnc2c(OC)cccc2c1Nc1ccccc1OC
5.82

Give the value of pIC50 reported for the following: C=CC(O)c1cccc2c(Nc3ccccc3C)c(C(=O)CCC)cnc12 (stereo unspecified)
6.18

Give the value of pIC50 reported for the following: CCCC(=O)c1cnc2c(OC)cccc2c1Nc1c(C)cc(O)cc1C
6.30

Give the value of pIC50 reported for the following: CCCC(=O)c1cnc2c(C(N)=O)cccc2c1Nc1ccccc1C
5.72

Give the value of pIC50 reported for the following: COCCOc1cccc2c(Nc3ccc(F)cc3C)c(C(=O)C(C)C)cnc12
5.77

Give the value of pIC50 reported for the following: CCCC(=O)c1cnc2c(F)cccc2c1Nc1ccc(O)cc1C
6.15

Give the value of pIC50 reported for the following: Cc1cc(F)ccc1Nc1c(C(=O)C(C)C)cnc2c(O)cccc12
5.57

Give the value of pIC50 reported for the following: CCCC(=O)c1cnc2c(C)cccc2c1Nc1ccccc1Cl
5.20

Give the value of pIC50 reported for the following: CCCC(=O)c1cnc2c(OC)cccc2c1Nc1ccccc1CC
6.05

Give the value of pIC50 reported for the following: CCCC(=O)c1cnc2c(OC)cccc2c1Nc1c(C)cccc1C
5.80

Give the value of pIC50 reported for the following: CCC(=O)c1cnc2c(CO)cccc2c1Nc1ccc(O)cc1C
6.74

Give the value of pIC50 reported for the following: CCCC(=O)c1cnc2c(OCCO)cccc2c1Nc1ccc(O)cc1C
6.68

Give the value of pIC50 reported for the following: CCCC(=O)c1cnc2cc(O)ccc2c1Nc1ccccc1C
5.92

Give the value of pIC50 reported for the following: CCCC(=O)c1cnc2c(/C=C/CO)cccc2c1Nc1ccccc1C
5.64

Give the value of pIC50 reported for the following: CCCC(=O)c1cnc2ccc(N)cc2c1Nc1c(C)cccc1C
6.80

Give the value of pIC50 reported for the following: CCCC(=O)c1cnc2c(OCCCN3CCCCC3)cccc2c1Nc1ccccc1C
6.30

Give the value of pIC50 reported for the following: CCCC(=O)c1cnc2c(O)cccc2c1Nc1ccc(F)cc1C
5.12

Give the value of pIC50 reported for the following: CCCC(=O)c1cnc2c(OC)cc(O)cc2c1Nc1ccc(F)cc1C
5.68

Give the value of pIC50 reported for the following: CCCC(=O)c1cnc2c(OC)cccc2c1Nc1ccc(OCCCn2ccnc2)cc1C
4.47

Give the value of pIC50 reported for the following: CCCC(=O)c1cnc2c(OCCCO)cccc2c1Nc1c(C)cccc1C
5.92

Give the value of pIC50 reported for the following: CCCC(=O)c1cnc2c(C)cccc2c1Nc1ccccc1OC
5.66

Give the value of pIC50 reported for the following: CCC(=O)c1cnc2c(O)cccc2c1Nc1ccc(F)cc1C
5.72

Give the value of pIC50 reported for the following: CCCC(=O)c1cnc2c(OCCN(C)C)cccc2c1Nc1ccccc1C
6.28

Give the value of pIC50 reported for the following: CCCC(=O)c1cnc2c(OC)cccc2c1Nc1ccc(NS(C)(=O)=O)cc1C
4.35

Give the value of pIC50 reported for the following: CCCC(=O)c1cnc2c(OC)cccc2c1Nc1c(OC)cc(OC)cc1OC
5.34

Give the value of pIC50 reported for the following: Cc1cc(F)ccc1Nc1c(C(=O)C(C)C)cnc2c(OCCO)cccc12
5.80

Give the value of pIC50 reported for the following: CCCC(=O)c1cnc2c(OC)cccc2c1Nc1ccc(NC(C)=O)cc1C
4.92

Give the value of pIC50 reported for the following: CCCC(=O)c1cnc2c(C(C)O)cccc2c1Nc1ccc(O)cc1C (stereo unspecified)
7.21

Give the value of pIC50 reported for the following: CCCC(=O)c1cnc2c(OCCOC)cccc2c1Nc1ccc(F)cc1C
5.46

Give the value of pIC50 reported for the following: Cc1ccccc1Nc1c(C(=O)C(C)C)cnc2c(OCCO)cccc12
6.00

Give the value of pIC50 reported for the following: CCCC(=O)c1cnc2c(C=O)cccc2c1Nc1ccccc1C
5.92

Give the value of pIC50 reported for the following: CCCC(=O)c1cnc2ccc(OC)cc2c1Nc1ccccc1C
5.15

Give the value of pIC50 reported for the following: CCCC(=O)c1cnc2c(C)cccc2c1Nc1c(C)cccc1C
5.51

Give the value of pIC50 reported for the following: CCCC(=O)c1cnc2c(OC)cccc2c1Nc1ccc(O)cc1
6.17

Give the value of pIC50 reported for the following: CCCC(=O)c1cnc2c(NCCCN3CCOCC3)cccc2c1Nc1ccccc1C
5.62

Give the value of pIC50 reported for the following: CCCC(=O)c1cnc2c(C(C)=O)cccc2c1Nc1ccccc1C
5.82

Give the value of pIC50 reported for the following: CCCC(=O)c1cnc2c(COC(=O)CC)cccc2c1Nc1ccccc1C
4.74

Give the value of pIC50 reported for the following: CCCC(=O)c1cnc2c(C)cccc2c1Nc1ccc(OC)cc1C
5.77

Give the value of pIC50 reported for the following: CCCC(=O)c1cnc2c(OC)cccc2c1Nc1ccc(OC)cc1C
5.90

Give the value of pIC50 reported for the following: CCCC(=O)c1cnc2c(N)cccc2c1Nc1ccccc1C
5.22

Give the value of pIC50 reported for the following: CCCC(=O)c1cnc2c(Oc3cnccn3)cccc2c1Nc1ccccc1C
5.70

Give the value of pIC50 reported for the following: CCCC(=O)c1cnc2c(C(=O)OC)cccc2c1Nc1ccccc1C
6.24

Give the value of pIC50 reported for the following: CCCC(=O)c1cnc2c(CC(=O)OC)cccc2c1Nc1ccccc1C
5.27

Give the value of pIC50 reported for the following: CCC(=O)c1cnc2c(OCCCNc3nccs3)cccc2c1Nc1c(C)cccc1C
5.77

Give the value of pIC50 reported for the following: CCCC(=O)c1cnc2c(OC)cccc2c1Nc1ccc(F)cc1C
5.64

Give the value of pIC50 reported for the following: CCCC(=O)c1cnc2ccc(O)cc2c1Nc1ccc(O)cc1C
7.15

Data provenance: ChEMBL document CHEMBL1128471
